- Test system: Staphylococcus Aureus
- Assay comment: in vitro antibacterial activity, agar dilution method (MIC)
- Format: cell-based
- Condition description: Staphylococcus aureus, strain 45; BHI agar, 20-24 hours; read-out: MIC
- Description: The test medium was Brain Heart Infusion (BHI) agar. The antibacterial agent was dissolved at a concentration of 2,000 ug/mL. Test plates were then prepared, usually 12 two-fold dilutions. After adding the sample to the plates, 10 mL of cooled BHI agar medium was added to each plate. The organisms were grown overnight in BHI broth (Difco) in a 35°-37° C. incubator. […]
Property label: MIC (µg/mL)

{"columns": ["Molecule", "Observed result"],
 "data": [
  ["CCC1OC(=O)CC(O)C(C)C(OC2OC(C)CC(N(C)C)C2O)C(CC=O)CC(C)C(N(C)C)C=CC2(C)OC2C1C (stereo not drawn)", 0.78],
  ["CCC1OC(=O)CC(O)C(C)C(OC2OC(C)C(O)C(N(C)C)C2O)C(CC=O)CC(C)C(N(C)C)C=CC(C)=CC1COC(C)=O (stereo not drawn)", 0.78],
  ["CC[C@H]1OC(=O)C[C@@H](O)[C@H](C)[C@@H](O[C@@H]2O[C@H](C)C[C@H](N(C)C)[C@H]2O)[C@@H](CC=O)C[C@@H](C)C(=O)/C=C/[C@]2(C)O[C@H]2[C@@H]1C [Rosaramicin, reference compound]", 0.39]
]}

====

- System: Enterobacter Aerogenes
- Assay comment: in vitro antibacterial activity, agar dilution method (MIC)
- Format: cell-based
- Condition description: Klebsiella aerogenes, ATCC13048, strain ATCC 13048; BHI agar, 20-24 hours; read-out: MIC

{"columns": ["Compound", "Unit symbol", "MIC"],
 "data": [
  ["CCC1OC(=O)CC(O)C(C)C(OC2OC(C)CC(N(C)C)C2O)C(CC=O)CC(C)C(N(C)C)C=CC(C)=CC1COC(C)=O (stereo not drawn) [Example 5]", "µg/mL", 50],
  ["CCC1OC(=O)CC(O)C(C)C(OC2OC(C)CC(N(C)C)C2O)C(CC=O)CC(C)C(N(C)C)C=CC2(C)OC2C1C (stereo not drawn) [Example 1]", "µg/mL", 6.2],
  ["CCC1OC(=O)CC(O)C(C)C(OC2OC(C)CC(N(C)C)C2O)C(CC=O)CC(C)C(N(C)C)CCC(C)=CC1COC(C)=O (stereo not drawn) [Example 8]", "µg/mL", 50]
]}

====

- Test system: Haemophilus Influenzae
- Assay comment: in vitro antibacterial activity, agar dilution method (MIC)
- Type: cell-based
- Condition description: Haemophilus influenzae, strain SOL AMP R; BHI agar, 20-24 hours; read-out: MIC

{"columns": ["Compound", "MIC"],
 "data": [
  ["CCC1OC(=O)CC(O)C(C)C(OC2OC(C)CC(N(C)C)C2O)C(CC=O)CC(C)C(N(C)C)CCC(C)=CC1COC(C)=O (centres unmarked)", "2 µg/mL"],
  ["CCC1OC(=O)CC(O)C(C)C(OC2OC(C)CC(N(C)C)C2O)C(CC=O)CC(C)C(N(C)C)CCC2(C)OC2C1C (centres unmarked)", "2 µg/mL"],
  ["CCC1OC(=O)CC(O)C(C)C(OC2OC(C)CC(N(C)C)C2O)C(CC=O)CC(C)C(N(C)C)C=CC(C)=CC1COC(C)=O (centres unmarked)", "2 µg/mL"],
  ["CCC1OC(=O)CC(O)C(C)C(OC2OC(C)C(O)C(N(C)C)C2O)C(CC=O)CC(C)C(N(C)C)CCC(C)=CC1COC(C)=O (centres unmarked)", "8 µg/mL"],
  ["CC[C@H]1OC(=O)C[C@@H](O)[C@H](C)[C@@H](O[C@@H]2O[C@H](C)C[C@H](N(C)C)[C@H]2O)[C@@H](CC=O)C[C@@H](C)C(=O)/C=C/[C@]2(C)O[C@H]2[C@@H]1C [Rosaramicin, reference compound]", "0.5 µg/mL"]
]}

All values here come from patent US5140014A.
